Target: furin, P09958;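 note: purified furin at 1:10 enzyme:substrate in 50 mM HEPES pH 7.5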
Sequence (P09958 whole entry): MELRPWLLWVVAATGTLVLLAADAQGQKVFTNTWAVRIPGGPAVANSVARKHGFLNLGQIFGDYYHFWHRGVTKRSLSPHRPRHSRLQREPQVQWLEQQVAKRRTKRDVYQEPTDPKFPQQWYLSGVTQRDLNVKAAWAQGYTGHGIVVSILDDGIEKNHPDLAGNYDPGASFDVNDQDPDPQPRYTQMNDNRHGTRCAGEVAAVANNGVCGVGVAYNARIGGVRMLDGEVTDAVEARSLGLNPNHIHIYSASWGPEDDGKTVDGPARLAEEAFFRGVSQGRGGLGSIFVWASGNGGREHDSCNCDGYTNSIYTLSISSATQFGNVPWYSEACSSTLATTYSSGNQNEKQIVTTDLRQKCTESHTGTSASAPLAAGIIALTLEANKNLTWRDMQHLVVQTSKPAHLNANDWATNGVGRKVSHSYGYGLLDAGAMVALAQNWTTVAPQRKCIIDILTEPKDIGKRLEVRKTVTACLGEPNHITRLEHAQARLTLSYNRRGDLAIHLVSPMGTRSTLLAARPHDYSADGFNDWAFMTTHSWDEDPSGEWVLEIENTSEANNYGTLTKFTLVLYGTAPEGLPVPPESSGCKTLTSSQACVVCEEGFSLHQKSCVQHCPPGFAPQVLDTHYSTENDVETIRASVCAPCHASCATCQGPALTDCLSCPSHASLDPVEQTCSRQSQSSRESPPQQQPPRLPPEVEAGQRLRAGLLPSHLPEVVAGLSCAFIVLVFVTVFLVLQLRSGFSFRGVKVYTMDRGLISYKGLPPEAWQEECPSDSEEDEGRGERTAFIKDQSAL
Assay: furin cleavage Z-score vs untreated control; higher = more cleavage, active = 3.5 or more, inactive = 1 or less, 8 variable residues between constant flanks
Conditions: 7.5 min
The other results are listed elsewhere or left out. How many sequences the whole screen found active is unknown.
Everything with furin cleavage Z-score lower than -0.2 is f; everything else, including exactly -0.2, is t.

Challenge: Could you tell me if the measured furin cleavage Z-score of CASFLVFFCFAGNASASA [HC544] reaches -0.2 or more?
Response given: f

Challenge: furin cleavage Z-score >= -0.2 for CATTPCSGIWAGNASASA [HC1904] ?
Response given: f

Challenge: Record CASTICSAHLAGNASASA [HC2504] ; criterion: furin cleavage Z-score no lower than -0.2. Met?
Response given: t

Challenge: Item CASTPCSSHLAGNASASA [HC2537] with furin cleavage Z-score of -0.2 or above?
Response given: f

Challenge: Would you say CARIERVIGAAGNASASA [FS-2212] shows furin cleavage Z-score at minimum -0.2?
Response given: t

Challenge: Please tell me: is the sequence CAGQKRSRSRAGNASASA [FS-2862] at or over -0.2 in terms of furin cleavage Z-score?
Response given: t

Challenge: Confirm if furin cleavage Z-score reported for the sequence CAPQSRGRREAGNASASA [FS-476] is -0.2 or above.
Response given: t

Challenge: Record CARRRRASAPAGNASASA [FS-3062] ; criterion: furin cleavage Z-score no lower than -0.2. Met?
Response given: t

Challenge: Hi, just wondering whether CAEEMEECSQAGNASASA [HC1792] shows furin cleavage Z-score of -0.2 or higher.
Response given: t

Challenge: Reported furin cleavage Z-score at or above -0.2? CAAEVIAPAVAGNASASA [HC1032]
Response given: f

Challenge: Given the entry CARRRRHRSYAGNASASA [FS-2078] , answer whether its furin cleavage Z-score meets or surpasses -0.2.
Response given: t

Challenge: Does the reported furin cleavage Z-score for CASTLPGNPAAGNASASA [HC1050] fall at or above the -0.2 mark?
Response given: f

Challenge: Is furin cleavage Z-score at least -0.2? Consider CASTVCSAHLAGNASASA [HC2510]
Response given: t

Challenge: Kindly determine if furin cleavage Z-score recorded for CAGSNRKVREAGNASASA [FS-435] is above or exactly -0.2.
Response given: t

Challenge: Please tell me: is the sequence CASGENLPYLAGNASASA [HC950] at or over -0.2 in terms of furin cleavage Z-score?
Response given: f

meta.source: the supplement of paper PMC3545927
